Target: Neurogenic locus notch homolog protein 2 (Homo sapiens)
Test: small molecules binding Notch2 protein – biochemical, small-molecule microarray, 635 nm fluorescence, stem cell growth factors, primary screen (AID 1073)
Details: higher = more signal
Listing: composite z-score of selected compounds
Output spec: single numeric token, no unit.

For orientation, consider the following solved cases.
CCCCC(CC)C(O)C1C=CC2C(=O)N(c3ccccc3)C(=O)C2N1Nc1ccc(C#N)cc1 (centres undefined)
1.59
COC(=O)C1=CC(CCCO)=CC(c2ccc(CN3CCCC3)cc2)N(Cc2cccc(OC(F)(F)F)c2)C=C1C(=O)OC (centres undefined)
1.44
O=C(c1ccccc1)N1C(=O)[C@]2(Cc3ccccc31)N=C(c1ccc(OCCCO)cc1)O[C@@H]2c1ccccc1
0.562

# next compound below
Entry COc1cc2c(cc1O)C(c1ccc(CN3CCCC3)cc1)N(Cc1cc3c(cc1Br)OCO3)CC2 (centres undefined) — recorded composite z-score = 0.963

----------
Test system: Sam68 (KHDRBS1)
Assay: compounds binding KHDRBS1 protein – biochemical, small-molecule microarray, 635 nm fluorescence, primary screen (AID 1125);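 note: score merges 667 nm channel intensity with signal to noise over triplicate slides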
Settings: higher = more signal
Listing: composite z-score of selected molecules
Output spec: single numeric token, no unit.

For orientation, consider the following solved cases.
C=CCNC(=O)[C@@H]1[C@H]2C(=O)O[C@H](c3ccccc3)[C@H](c3ccccc3)N2[C@H](c2ccc(OCCO)cc2)[C@@]12C(=O)N(C(=O)OCCOC)c1ccc(C#Cc3ccc(OC)cc3)cc12
1.3
O=C(c1ccccc1)N1C(=O)[C@]2(Cc3ccccc31)N=C(c1ccc(OCCCO)cc1)O[C@@H]2c1ccccc1
1.29

Entry "C=CC[C@]1(C(=O)N2CCCCC2)N=C(c2ccc(OCCCO)cc2)O[C@H]1c1ccccc1CN=[N+]=[N-]" — recorded composite z-score = 1.3

Entry "Cc1ccc(S[C@]2(C(=O)NCc3ccccc3)CC(=O)N(C3CCCCC3)[C@@H]2c2ccc(CO)cc2I)cc1" — recorded composite z-score = 1.23

Entry "O=C1O[C@H](c2ccccc2)[C@H](c2ccccc2)N2[C@H]1[C@@H](C(=O)O)[C@]1(C(=O)Nc3ccc(C#CCCO)cc31)[C@H]2c1ccccc1OCCO" — recorded composite z-score = 0.794

Entry "O=C1N(Cc2ccccc2)c2ccccc2C[C@]12N=C(c1ccc(OCCCO)cc1)O[C@@H]2c1ccccc1" — recorded composite z-score = 0.48

Entry CC(C)N1CC=CC23O[C@@H]4C=CCCOC(=O)C4[C@H]2C(=O)N(CCCO)[C@@H]3C1=O (some centres not stated) — recorded composite z-score = 0.334

----------
System: wheat germ agglutinin (Triticum aestivum), Alexa647-labelled
Assay: Alexa647-WGA lectin binding to printed small molecules – biochemical, small-molecule microarray, 635/667 nm fluorescence, artefact control for SMM control-protein annotation, profiling panel (AID 1140);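 note: score merges 667 nm feature emission with signal to noise over triplicate slides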
Settings: WGA-A647 binding, 635 nm fluorescence, higher = more signal
result.type: composite z-score
Output spec: single numeric token, no unit.

For orientation, consider the following solved cases.
C=C(C(=O)CC[C@H](OC(=O)c1ccccc1-c1ccccc1C(=O)O)c1cccc(OCCO)c1)C(C)C
0.36
CC1CC/C=C\[C@H]2OC34C=CCN(c5ccc(Cl)cc5)C(=O)[C@H]3N(C(C)CO)C(=O)[C@]4(C)C2C(=O)O1 (some centres undefined)
0.429
CC(c1ccccc1)C(O)C1C=CC2C(=O)N(C)C(=O)C2N1Nc1ccccc1 (centres undefined)
1.21

# next compound below
So the reported composite z-score for C=CCC(OC(C)=O)[C@@H]1[C@@H](N(Cc2ccc(-c3cccc(C(F)(F)F)c3)o2)C(=O)c2ccc(-c3ccccc3)cc2)c2cc(OCCCO)ccc2N1C(=O)Cc1ccc2ccccc2c1 (some centres undefined) , on wheat germ agglutinin (Triticum aestivum), Alexa647-labelled, turned out to be -0.0916

----------
Test: probe aDKK1 binding to arrayed compounds – biochemical, biotinylated probe, 635/667 nm fluorescence, primary screen (AID 1099);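 note: score merges 667nm spot fluorescence with signal to noise across triplicate slides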
Conditions: small-molecule microarray, higher = more signal
result.type: composite z-score
Output spec: single numeric token, no unit.

For orientation, consider the following solved cases.
COC(=O)[C@@]1(Cc2ccc(OC)cc2)[C@H]2c3cc(C(=O)N4CCCC4)n(CCc4c[nH]c5ccc(O)cc45)c3C[C@H]2CN1C(=O)c1ccccc1
1.24
CC(C)C(O)C1C=CC2C(=O)N(c3ccccc3)C(=O)C2N1Nc1ccccc1 (centres undefined)
0.584
COCCOC(=O)N1C(=O)[C@@]2(c3ccccc31)[C@H](C(=O)NC[C@H](O)c1ccccc1)[C@H]1C(=O)O[C@H](c3ccccc3)[C@H](c3ccccc3)N1[C@@H]2c1ccc(O)cc1
0.804

# next compound below
Entry "CCOC(=O)C[C@H]1[C@H](OC(=O)c2ccccc2-c2ccccc2)[C@@H](NC(=O)c2ccc3ccccc3c2)c2cc(OCCCO)ccc2N1C(=O)c1ccccc1" — recorded composite z-score = -0.154

----------
Test: probe aNOTCH3 binding on compound microarray – biochemical, small-molecule microarray, 635/667 nm fluorescence, primary screen (AID 1120);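 note: probe is a biotin-tagged antibody raised against NOTCH3 rather than NOTCH3 protein; score merges spot fluorescence near 667 nm with spot signal to noise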
Conditions: higher = more signal
Param threshold (-0.03) applies to composite z-score; output yes when value >= threshold, no when value < threshold.

CO[C@H]1O[C@H](CO)[C@@H](OC(=O)Nc2ccccc2)[C@H](OC(=O)c2cc3ccccc3[nH]2)[C@H]1OC(=O)c1cc2ccccc2[nH]1
no
Cc1ccc(S[C@]2(C(=O)NCCN3CCOCC3)CC(=O)N(Cc3ccccc3Cl)[C@@H]2c2ccc(CO)cc2I)cc1
yes
C=CC[C@]1(C(=O)N2CCCCC2)N=C(c2ccc(OCCCO)cc2)O[C@H]1c1ccccc1CN=[N+]=[N-]
yes
C=C[C@@H](CO)N(Cc1ccc(OC)cc1)S(=O)(=O)c1ccc(Br)cc1
no

Q) Decide: is the reported value of composite z-score for "COC(=O)[C@@H]1N=C(c2ccc(OCCCO)cc2)O[C@@H]1C" equal to or greater than -0.03?
A) yes

Q) Decide: is the reported value of composite z-score for "CCCC[C@@H](O)C1=C(COC)C[C@H]2C(=O)N(Cc3ccccc3)C(=O)[C@H]2[C@H]1CO" equal to or greater than -0.03?
A) no

Q) Decide: is the reported value of composite z-score for "COc1ccc([C@H]2OC[C@@H]3C[C@H](Cc4ccccc4)C(=O)N32)cc1" equal to or greater than -0.03?
A) yes

Q) Decide: is the reported value of composite z-score for "CCCNC(=O)[C@@H]1c2ccccc2C(=O)N(Cc2ccc(OC(F)(F)F)cc2)[C@H]1c1ccc(CO)cc1" equal to or greater than -0.03?
A) yes

----------
Assay: probe aNOTCH2 binding on compound microarray – biochemical, small-molecule microarray, 635/667 nm fluorescence, primary screen (AID 1121);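 note: score merges feature fluorescence read at 667 nm with its signal to noise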
Settings: higher = more signal
Param threshold (-0.04) applies to composite z-score; output Met when value >= threshold, Not met when value < threshold.

CC(C)c1ccc(NN2C(C(O)c3ccc(C#N)cc3)C=CC3C(=O)N(c4ccccc4)C(=O)C32)cc1 (configuration not stated)
Met
CC(C)C[C@@H]1NC(=O)[C@@H]2C[C@H](C(=O)NCCCCCCN)[C@H](c3cccc(OCCO)c3)N2C1=O
Not met
C[C@@H]1NC(=O)[C@@H](Cc2ccccc2)NC(=O)[C@@]23C(=O)N[C@@H](Cc4ccccc4)C2[C@H](C)[C@@]2(C)O[C@H]2C3/C=C/C/C=C\CNC1=O (some centres not stated)
Not met
CC(C)[Si](C#CCCCC#N)(O[C@H](c1ccccc1)c1cn(Cc2ccccc2)nn1)C(C)C
Not met

Q) Decide: is the reported value of composite z-score for "C[N+](C)(C)CCCC[C@@H]1NC(=O)[C@@H]2C[C@H](C(=O)NCCCCCCN)[C@H](c3cccc(OCCO)c3)N2C1=O" equal to or greater than -0.04?
A) Met

Q) Decide: is the reported value of composite z-score for "COC(=O)[C@@]1(Cc2ccc(OC)cc2)[C@H]2c3cc(C(=O)N(C)C)n(Cc4ccc(C)o4)c3C[C@H]2CN1C(=O)c1ccccc1" equal to or greater than -0.04?
A) Met

Q) Decide: is the reported value of composite z-score for "CCOC(=O)C1=C[C@@H](C(C)C)N(S(=O)(=O)c2ccc(C)cc2)[C@H]1c1ccc(C(F)(F)F)cc1" equal to or greater than -0.04?
A) Not met

----------
Target: Luciferin 4-monooxygenase (Photinus pyralis)
Assay: inhibition of purified Photinus pyralis luciferase – biochemical, luminescence, purified enzyme, 2006 set, primary screen (AID 1141);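 note: cell-free assay with purified firefly luciferase at 100 ng per well in PBS; test concentration not given here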
Conditions: purified firefly luciferase, SteadyGlo luminescence, 30 min; higher = more signal, called active from +8 up or from −8 down
Param threshold (0.3) applies to z-score; output TRUE when value >= threshold, FALSE when value < threshold.

These solved cases illustrate the format of a correct answer.
COc1ccc(C#Cc2ccc3c(c2)[C@]2(C(=O)N3)[C@H](C(=O)O)[C@H]3C(=O)O[C@H](c4ccccc4)[C@H](c4ccccc4)N3[C@@H]2c2ccc(O)cc2)cc1
FALSE
C[N+](C)(C)CCCCCCNC(=O)[C@@H]1C[C@@H]2C(=O)N3CCC[C@H]3C(=O)N2[C@@H]1c1ccc(O)cc1
TRUE
COCCOC(=O)N1C(=O)[C@@]2(c3cc(C#CCC(C(=O)OC)C(=O)OC)ccc31)[C@H](c1ccc(OCCO)cc1)N1[C@H](c3ccccc3)[C@H](c3ccccc3)OC(=O)[C@H]1[C@@H]2C(=O)N1CCc2cc(OC)c(OC)cc2C1
FALSE
COCCOC(=O)N1C(=O)[C@@]2(c3cc(C#CC4=CCCCC4)ccc31)[C@H](C(=O)Nc1nc3ccccc3s1)[C@H]1C(=O)O[C@H](c3ccccc3)[C@H](c3ccccc3)N1[C@@H]2c1ccc(O)cc1
FALSE
COC(=O)[C@@]1(Cc2ccc(OC)cc2)[C@H]2c3cc(C(=O)N4CCCC4)n(CCc4c[nH]c5ccc(OC)cc45)c3C[C@H]2CN1C(=O)c1ccccc1
TRUE

Moving on to the next compound.
Q) Decide: is the reported value of z-score for "C=C[C@H]1C(C(=O)OCC)=CC[C@@H](c2ccccc2)N1S(=O)(=O)c1ccc(C)cc1" equal to or greater than 0.3?
A) FALSE
